test-summary: The drug is tested on Providencia rettgeri strain: DSM1131 for biotransformation. The drug concentrations were measured before and after a 12-h incubation by liquid-chromatography-coupled mass spectrometry (LC–MS)
Assay type: ADME
Set-up: dose 2 uM, timepoint 0 vs 12 hours
measurement-conditions: 2 µM
Non-standard residues stand in square brackets, D forms with d. Residues, ends and D or L forms follow the SMILES beside them. pGlu = O=C1CC[C@@H](C(=O)O)N1; Thz = O=C(O)[C@@H]1CSCN1
readout-label: Bacterial Biotransformation

Example results:
COC(=O)Nc1nc2ccc(C(=O)c3ccccc3)cc2[nH]1	Compound NOT metabolized
COc1c(C)c2c(c(O)c1C/C=C(\C)CCC(=O)OCCN1CCOCC1)C(=O)OC2 [MYCOPHENOLATE MOFETIL]	Compound metabolized
CN(C/C=C/C#CC(C)(C)C)Cc1cccc2ccccc12	Compound NOT metabolized
C[C@@H]1CC[C@H]2[C@@H](C)C(=O)O[C@@H]3O[C@@]4(C)CC[C@@H]1[C@]32OO4	Compound metabolized
OC(CCN1CCCCC1)(c1ccccc1)C1CC2C=CC1C2 (configuration not stated)	Compound NOT metabolized

Data request, read-out Bacterial Biotransformation, for CNC(=C[N+](=O)[O-])NCCSCc1csc(CN(C)C)n1
Compound NOT metabolized

Data request, read-out Bacterial Biotransformation, for O=C1CC[C@@H](C(=O)N2CSC[C@H]2C(=O)O)N1 [PIDOTIMOD] ([pGlu]-[Thz]-OH)
Compound NOT metabolized

Data request, read-out Bacterial Biotransformation, for Cc1nc2n(c(=O)c1CCN1CCC(c3noc4cc(F)ccc34)CC1)CCCC2O (configuration not stated)
Compound metabolized

Data request, read-out Bacterial Biotransformation, for CCCCC(=O)O[C@]1(C(=O)CO)[C@@H](C)C[C@H]2[C@@H]3CCC4=CC(=O)C=C[C@]4(C)[C@@]3(F)[C@@H](O)C[C@@]21C [BETAMETHASONE VALERATE]
Compound NOT metabolized

Data request, read-out Bacterial Biotransformation, for CCN(C)C(=O)Oc1cccc([C@H](C)N(C)C)c1.O=C(O)C(O)C(O)C(=O)O [RIVASTIGMINE TARTRATE]
Compound NOT metabolized

Data request, read-out Bacterial Biotransformation, for O=C1NCC2(CCN(CCc3ccccc3)CC2)O1 [FENSPIRIDE]
Compound NOT metabolized

Data request, read-out Bacterial Biotransformation, for OCCN1CCN(CCCN2c3ccccc3Sc3ccc(C(F)(F)F)cc32)CC1
Compound NOT metabolized

Data request, read-out Bacterial Biotransformation, for CN1CCC(=C2c3ccccc3CC(=O)c3sccc32)CC1.O=C(O)/C=C/C(=O)O [KETOTIFEN FUMARATE]
Compound NOT metabolized

Data request, read-out Bacterial Biotransformation, for COCCc1ccc(OCC(O)CNC(C)C)cc1.COCCc1ccc(OCC(O)CNC(C)C)cc1.O=C(O)C(O)C(O)C(=O)O (configuration not stated) [METOPROLOL TARTRATE]
Compound NOT metabolized

Data request, read-out Bacterial Biotransformation, for COc1cc2nc(N3CCN(C(=O)C4CCCO4)CC3)nc(N)c2cc1OC (configuration not stated)
Compound NOT metabolized

Data request, read-out Bacterial Biotransformation, for CC(C)(C)NCC(O)c1cc(Cl)c(N)c(Cl)c1 (configuration not stated)
Compound NOT metabolized

Data request, read-out Bacterial Biotransformation, for Cc1ccnc2c1NC(=O)c1cccnc1N2C1CC1
Compound NOT metabolized
